studyTarget: T1, orthogonal hCD122 receptor (hoRb), hCD122 with H133D and Y134F (human, UniProt P14784 27-550); note: reference of the scale not given here
T1 sequence: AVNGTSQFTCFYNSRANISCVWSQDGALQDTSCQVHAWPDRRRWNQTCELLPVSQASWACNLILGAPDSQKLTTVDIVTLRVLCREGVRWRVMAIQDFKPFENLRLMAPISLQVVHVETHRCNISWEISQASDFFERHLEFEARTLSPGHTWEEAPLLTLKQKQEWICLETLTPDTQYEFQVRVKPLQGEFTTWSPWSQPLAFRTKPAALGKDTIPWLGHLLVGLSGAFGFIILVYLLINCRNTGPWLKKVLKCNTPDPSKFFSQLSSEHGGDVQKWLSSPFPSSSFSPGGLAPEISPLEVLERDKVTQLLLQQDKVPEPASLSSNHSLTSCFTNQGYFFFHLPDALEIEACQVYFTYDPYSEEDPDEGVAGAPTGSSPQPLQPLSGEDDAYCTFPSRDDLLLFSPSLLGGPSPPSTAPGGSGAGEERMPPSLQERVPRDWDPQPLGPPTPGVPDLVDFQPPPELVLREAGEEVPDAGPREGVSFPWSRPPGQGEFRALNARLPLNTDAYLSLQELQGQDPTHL
assayName: cell-based or functional assay
In this section we review reported Relative Proliferation Fold Change NKL 1:10 values for a set of binders.
measureName: Relative Proliferation Fold Change NKL 1:10 (fold)

# binder, measuredResult
measured = [
    ("G27S, SQVLKA (ligand) APTSSSTKKTQLQLSQLLVLLKAILNSINNYKNPKLTRMLTFKFYMPKKATELKHLQCLEEELKPLEEVLNLAQSKNFHLRPRDLISNINVIVLELKGSETTFMCEYADETATIVEFLNRWITFCQSIISTLT", 2.94),
    ("ΔT3, SQVLKA (ligand) APSSSTKKTQLQLSQLLVLLKAILNGINNYKNPKLTRMLTFKFYMPKKATELKHLQCLEEELKPLEEVLNLAQSKNFHLRPRDLISNINVIVLELKGSETTFMCEYADETATIVEFLNRWITFCQSIISTLT", 3.73),
    ("L18E, SQVLKA (ligand) APTSSSTKKTQLQLSQLEVLLKAILNGINNYKNPKLTRMLTFKFYMPKKATELKHLQCLEEELKPLEEVLNLAQSKNFHLRPRDLISNINVIVLELKGSETTFMCEYADETATIVEFLNRWITFCQSIISTLT", 0.56),
    ("M104A, SQVLKA (ligand) APTSSSTKKTQLQLSQLLVLLKAILNGINNYKNPKLTRMLTFKFYMPKKATELKHLQCLEEELKPLEEVLNLAQSKNFHLRPRDLISNINVIVLELKGSETTFACEYADETATIVEFLNRWITFCQSIISTLT", 3.48),
]
